# Test system: Staphylococcus aureus 209P JC-1 strain
# assayText: antibacterial activity (MIC), standard in vitro dilution test
# Format: cell-based
# testContext: Staphylococcus aureus, 209P, test bacterium strain 10^5 cfu/ml; read-out: MIC, Staphylococcus aureus 209P JC-1 strain
attributeMeasured: MIC (µg/mL)

(A) CC[C@H](O)[C@@H]1C(=O)N2C(C(=O)O)=C(SCCC(=O)Nc3ccccc3)S[C@H]12
(B) CC[C@H](O)[C@@H]1C(=O)N2C(C(=O)O)=C(SCc3ccc(Cl)c(Cl)c3)S[C@H]12
(C) CC[C@H](O)[C@@H]1C(=O)N2C(C(=O)O)=C(SCCn3cccc3)S[C@H]12
(D) CC[C@H](O)[C@@H]1C(=O)N2C(C(=O)O)=C(S[C@H]3CCN(c4ccncc4)C3)S[C@H]12
Form: Sort by [MIC] Order [ ascending ] I'd appreciate it if you listed the labels in the requested order. D, B, C, A
